Tested on: CD8+ T cells
test.name: In vitro immunogenicity: T-cell priming with aAPCs loaded with peptide/MHC and anti-CD28, pMHC multimer readout
Assay type: cell-based, human
experimental.conditions: HLA-A*02 restricted peptides
experimental.endpoint: Wells positive [%]

Consider the worked cases shown below.
Problem: Assign Wells positive [%] to the following record: 603 (FLIEPEHVNTV; listed as Homo sapiens) [compound 603]
Solution: ″+″ (<20% = +)

Problem: Return Wells positive [%] for the following substance: 143 (LLLDITPEI; listed as Homo sapiens) [compound 143]
Solution: ″+″ (<20% = +)

Problem: Return reported Wells positive [%]. Input substance: 48 (ALAELYEDEV; listed as Homo sapiens) [compound 48]
Solution: ″+″ (<20% = +)

Problem: Dear colleague, please send me the reported Wells positive [%] for 141 (YLDFSNNRL; listed as Homo sapiens) [compound 141] when you can.
Solution: ″+″ (<20% = +)

Problem: Specify Wells positive [%] for 11 (KIFEMLEGV; listed as Homo sapiens) [compound 11] and stop.
Solution: ″+″ (<20% = +)

Provide Wells positive [%] values for the following items, in order.
1. 460 (AMLEKNYKL; listed as Homo sapiens) [compound 460]
2. 8 (FTLGNVVGMYL; listed as Homo sapiens) [compound 8]
3. 36 (YVLEDLEVTV; listed as Homo sapiens) [compound 36]

Solution:
["″+″ (<20% = +)", "″+″ (<20% = +)", "″+″ (<20% = +)"]
